Entries and their LogP values follow.
ASSAY_PROTOCOL: Log P by HPLC on reversed phase columns (EEC directive 79/831 Annex V.A8)
Type: physicochemical
TEST_SETTINGS: [a] LC-UV, acidic range, 0.1% formic acid in water and acetonitrile as eluent
QUANTITY_NAME: LogP

COMPOUND | QUANTITY_NAME | DATA_VALUE
O=C(Nc1ccc(F)cc1-c1ccc(Cl)c(Cl)c1)c1c(C(F)F)ccnc1C(F)F [Example I-31] | LogP | 3.96^[a]
O=C(Nc1ccccc1Oc1ccc(Cl)cc1)c1cccnc1C(F)F [Example I-03] | LogP | 3.33^[a]
O=C(Nc1ccccc1Sc1ccccc1)c1cccnc1C(F)F [Example I-11] | LogP | 3.21^[a]
CCON=Cc1ccc(-c2ccccc2NC(=S)c2cccnc2C(F)F)cc1 [Example I-67] | LogP | 3.70^[a]
O=C(Nc1ccccc1Oc1cccc(Cl)c1)c1cccnc1C(F)F [Example I-06] | LogP | 3.29^[a]

----------
ASSAY_PROTOCOL: Log P by HPLC on reversed phase columns (EEC directive 79/831 Annex V.A8)
Type: physicochemical
TEST_SETTINGS: [a] LC-UV, acidic range, 0.1% formic acid in water and acetonitrile as eluent
Entries and their LogP values follow.
QUANTITY_NAME: LogP

COMPOUND | DATA_VALUE
O=C(Nc1ccccc1Oc1ccc(C(F)(F)F)cc1)c1cccnc1C(F)F | 3.46^[a]
O=C(Nc1ccccc1Oc1cc(Cl)cc(Cl)c1)c1cccnc1C(F)F | 3.81^[a]
O=C(Nc1ccccc1-c1cccc(Cl)c1)c1cccnc1C(F)F | 2.96^[a]
O=C(Nc1ccccc1Oc1ccc(F)cc1)c1cccnc1C(F)F | 2.96^[a]
O=C(Nc1cccc(Cl)c1Oc1ccc(Cl)cc1)c1cccnc1C(F)F | 3.59^[a]
O=C(Nc1ccccc1-c1ccccc1)c1cccnc1C(F)F | 2.55^[a]
CCON=Cc1c(F)cc(-c2ccccc2NC(=S)c2cccnc2C(F)F)cc1F | 3.92^[a]
CON=Cc1c(F)cc(-c2ccccc2NC(=S)c2cccnc2C(F)F)cc1F | 3.55^[a]
O=C(Nc1ccccc1-c1ccc(Cl)c(F)c1)c1cccnc1C(F)F | 3.06^[a]
O=C(Nc1cccc(Cl)c1Sc1ccccc1)c1cccnc1C(F)F | 3.59^[a]
O=C(Nc1ccc(F)cc1-c1ccc(Cl)c(Cl)c1)c1cccnc1C(F)F | 3.44^[a]
O=C(Nc1ccccc1Oc1ccc(F)c(F)c1)c1cccnc1C(F)F | 3.09^[a]
O=C(Nc1ccccc1-c1ccc(Cl)c(Cl)c1)c1cccnc1C(F)F | 3.35^[a]
O=C(Nc1cc(C(F)(F)F)ccc1Oc1ccccc1)c1cccnc1C(F)F | 3.63^[a]
COC(=N)c1c(F)cc(-c2cc(F)ccc2NC(=S)c2cccnc2C(F)F)cc1F | 3.73^[a]
Cc1ccccc1Oc1ccccc1NC(=O)c1cccnc1C(F)F | 3.27^[a]
COc1ccc(Oc2ccccc2NC(=O)c2cccnc2C(F)F)cc1 | 2.90^[a]
O=C(Nc1ccccc1-c1ccccc1Cl)c1cccnc1C(F)F | 2.74
O=C(Nc1ccccc1-c1ccc(F)cc1F)c1cccnc1C(F)F | 2.66^[a]

----------
ASSAY_PROTOCOL: Log P by HPLC on reversed phase columns (EEC directive 79/831 Annex V.A8)
Type: physicochemical
TEST_SETTINGS: [a] LC-UV, acidic range, 0.1% formic acid in water and acetonitrile as eluent
Entries and their LogP values follow.

COMPOUND | LogP
CCON=Cc1ccc(-c2ccccc2NC(=O)c2cccnc2C(F)F)cc1 | 3.23^[a]
O=C(Nc1ccccc1Sc1ccc(Cl)cc1)c1cccnc1C(F)F | 3.57^[a]
COc1ccccc1Oc1ccccc1NC(=O)c1cccnc1C(F)F | 2.88^[a]
COC(=N)c1c(F)cc(-c2cc(F)ccc2NC(=O)c2cccnc2C(F)F)cc1F | 3.16^[a]
O=C(Nc1ccc(F)cc1-c1ccc(F)cc1)c1cccnc1C(F)F | 2.73^[a]
O=C(Nc1ccccc1Oc1ccc(Cl)cc1Cl)c1cccnc1C(F)F | 3.65^[a]
O=C(Nc1ccccc1-c1ccc(C(F)(F)F)c(Cl)c1)c1cccnc1C(F)F | 3.50^[a]
N#Cc1c(F)cc(-c2ccccc2NC(=S)c2cccnc2C(F)F)cc1F | 3.19^[a]
CCON=Cc1c(F)cc(-c2ccccc2NC(=O)c2cccnc2C(F)F)cc1F | 3.46^[a]
N#Cc1c(F)cc(-c2ccccc2NC(=O)c2cccnc2C(F)F)cc1F | 2.71^[a]
CCON=Cc1c(F)cc(-c2cc(F)ccc2NC(=O)c2cccnc2C(F)F)cc1F | 3.55^[a]
N#Cc1ccc(Oc2ccccc2NC(=O)c2cccnc2C(F)F)cc1 | 2.51^[a]
COC(=N)c1c(F)cc(-c2cccc(F)c2NC(=S)c2cccnc2C(F)F)cc1F | 3.60^[a]
COc1cccc(Oc2ccccc2NC(=O)c2cccnc2C(F)F)c1 | 2.92^[a]
O=C(Nc1ccccc1Oc1cccc(F)c1)c1cccnc1C(F)F | 2.96^[a]
CON=Cc1ccc(-c2ccccc2NC(=O)c2cccnc2C(F)F)cc1 | 2.86^[a]
O=C(Nc1ccccc1-c1cccc(C(F)(F)F)c1)c1cccnc1C(F)F | 3.15^[a]
O=C(Nc1ccccc1-c1ccc(F)cc1)c1cccnc1C(F)F | 2.66^[a]

----------
ASSAY_PROTOCOL: Log P by HPLC on reversed phase columns (EEC directive 79/831 Annex V.A8)
Type: physicochemical
TEST_SETTINGS: [a] LC-UV, acidic range, 0.1% formic acid in water and acetonitrile as eluent
QUANTITY_NAME: LogP

COMPOUND | DATA_VALUE
O=C(Nc1ccccc1Oc1ccc(Br)cc1)c1cccnc1C(F)F [Example I-30] | 3.39^[a]
CCCOc1c(F)cc(-c2ccccc2NC(=O)c2cccnc2C(F)F)cc1F [Example I-58] | 3.61^[a]
O=C(Nc1cccc(Cl)c1Oc1ccccc1)c1cccnc1C(F)F [Example I-22] | 3.15^[a]
O=C(Nc1ccccc1Oc1ccccc1)c1cccnc1C(F)F [Example I-20] | 2.90^[a]
O=C(Nc1ccccc1-c1cc(Cl)cc(Cl)c1)c1cccnc1C(F)F [Example I-53] | 3.48^[a]
Cc1cccc(Oc2ccccc2NC(=O)c2cccnc2C(F)F)c1 [Example I-19] | 3.23^[a]
CON=Cc1c(F)cc(-c2ccccc2NC(=O)c2cccnc2C(F)F)cc1F [Example I-49] | 3.17^[a]
CCCCOc1c(F)cc(-c2ccccc2NC(=O)c2cccnc2C(F)F)cc1F [Example I-59] | 3.99^[a]
O=C(Nc1ccccc1-c1ccc(F)c(F)c1)c1cccnc1C(F)F [Example I-42] | 2.78^[a]

----------
Entries and their chromatographic logP values follow.
ASSAY_PROTOCOL: Log P by HPLC on reversed phase columns (EEC directive 79/831 Annex V.A8)
Format: physicochemical
TEST_SETTINGS: reversed phase HPLC column; [a] LC-UV, acidic range, 0.1% formic acid in water and acetonitrile as eluent

COMPOUND | chromatographic logP
FC(F)c1ncccc1C(=S)Nc1ccccc1-c1ccc(C(F)(F)F)c(Cl)c1 [Example I-68] | 3.94
Cc1ccc(Oc2ccccc2NC(=O)c2cccnc2C(F)F)cc1 [Example I-01] | 3.27

----------
ASSAY_PROTOCOL: Log P by HPLC on reversed phase columns (EEC directive 79/831 Annex V.A8)
Type: physicochemical
TEST_SETTINGS: [a] LC-UV, acidic range, 0.1% formic acid in water and acetonitrile as eluent
Entries and their LogP values follow.

COMPOUND | LogP
CCON=Cc1c(F)cc(-c2cc(F)ccc2NC(=S)c2cccnc2C(F)F)cc1F [Example I-70] | 4.11^[a]
CSc1ccc(-c2ccccc2NC(=O)c2cccnc2C(F)F)cc1 [Example I-56] | 2.94^[a]
O=C(Nc1ccccc1-c1ccc(F)c(Cl)c1)c1cccnc1C(F)F [Example I-66] | 3.04^[a]
O=C(Nc1ccccc1-c1cc(F)cc(F)c1)c1cccnc1C(F)F [Example I-38] | 2.80^[a]
O=C(Nc1ccccc1Oc1cc(F)cc(C(F)(F)F)c1)c1cccnc1C(F)F [Example I-04] | 3.57^[a]

----------
ASSAY_PROTOCOL: Log P by HPLC on reversed phase columns (EEC directive 79/831 Annex V.A8)
Format: physicochemical
TEST_SETTINGS: [a] LC-UV, acidic range, 0.1% formic acid in water and acetonitrile as eluent
QUANTITY_NAME: LogP

COMPOUND | QUANTITY_NAME | DATA_VALUE
O=C(Nc1ccccc1-c1ccc(Cl)cc1)c1cccnc1C(F)F | LogP | 2.92^[a]
O=C(Nc1ccccc1Oc1cccc(C(F)(F)F)c1)c1cccnc1C(F)F | LogP | 3.44^[a]
O=C(Nc1ccccc1S(=O)(=O)c1ccccc1)c1cccnc1C(F)F | LogP | 2.56^[a]
CON=Cc1c(F)cc(-c2cccc(F)c2NC(=O)c2cccnc2C(F)F)cc1F | LogP | 2.97^[a]
CC(C)(C)C#Cc1ccc(-c2ccccc2NC(=O)c2cccnc2C(F)F)cc1 | LogP | 4.29^[a]
CCON=Cc1c(F)cc(-c2cccc(F)c2NC(=S)c2cccnc2C(F)F)cc1F | LogP | 3.99^[a]
Fc1ccc(-c2ccccc2NC(=S)c2cccnc2C(F)F)cc1F | LogP | 3.27^[a]
O=C(Nc1ccccc1-c1ccccc1C(F)(F)F)c1cccnc1C(F)F | LogP | 2.99
CCON=Cc1c(F)cc(-c2cccc(F)c2NC(=O)c2cccnc2C(F)F)cc1F | LogP | 3.35^[a]
O=C(Nc1ccccc1Oc1cc(F)cc(F)c1)c1cccnc1C(F)F | LogP | 3.11^[a]
O=C(Nc1ccccc1-c1cc(F)c(F)c(F)c1)c1cccnc1C(F)F | LogP | 2.92^[a]
